Parameter EC50: see the listing below.
# Tested on: Vibrio campbellii BAA 1119 (AI-2)
# assay-method-text: microbe, parasite or virus in culture
# Type: cell-based
# condition-details: Vibrio campbellii, BAA1119, 16 h, read-out: EC50 (concentration that halved the communication)

{"compound": "COc1cc(C2Oc3cc(-c4oc5c(Br)c(O)c(Br)c(O)c5c(=O)c4O)ccc3OC2CO)ccc1O (stereo not drawn) [compound 17, 6,8-dibromo-2,3-dehydrosilybin AB]", "unit-name": "µM", "EC50": 4.1}
{"compound": "COc1cc([C@@H]2Oc3cc([C@H]4Oc5cc(O)cc(O)c5C(=O)[C@@H]4O)ccc3O[C@H]2CO)ccc1O [3b, silybin B, reference compound]", "unit-name": "µM", "EC50": 22.3}
{"compound": "COc1cc([C@H]2Oc3cc([C@H]4Oc5cc(O)c(Br)c(O)c5C(=O)[C@@H]4O)ccc3O[C@@H]2CO)ccc1O", "unit-name": "µM", "EC50": 9.4}

* * *

# Tested on: lipopolysaccharide-stimulated macrophages (RAW 264.7)
# assay-method-text: Inhibition of nitric oxide production (Griess reagent)
# Format: cell-based, murine
# condition-details: Mus musculus, RAW264.7; LPS 100 ng/mL, 24 h; highest tested concentration 100 µM; read-out: NO Production IC50
pIC50: −log10 of the molar value.
Parameter pIC50: see the listing below.

{"compound": "O=c1c(O)c(-c2ccc(O)c(O)c2)oc2c(Br)c(O)c(Br)c(O)c12", "tgt": "lipopolysaccharide-stimulated macrophages (RAW 264.7)", "value-comparator": "=", "pIC50": 4.39}
{"compound": "COc1cc([C@H]2Oc3cc([C@H]4Oc5c(Br)c(O)cc(O)c5C(=O)[C@@H]4O)ccc3O[C@@H]2CO)ccc1O", "tgt": "lipopolysaccharide-stimulated macrophages (RAW 264.7)", "value-comparator": "=", "pIC50": 4.44}
{"compound": "COc1cc([C@H]2Oc3cc([C@H]4Oc5c(Br)c(O)c(Br)c(O)c5C(=O)[C@@H]4O)ccc3O[C@@H]2CO)cc(Br)c1O", "tgt": "lipopolysaccharide-stimulated macrophages (RAW 264.7)", "value-comparator": "=", "pIC50": 4.15}
{"compound": "COc1cc(C2Oc3cc(-c4oc5cc(O)cc(O)c5c(=O)c4O)ccc3OC2CO)ccc1O (stereo not drawn) [compound 4, 2,3-dehydrosilybin AB, reference compound]", "tgt": "lipopolysaccharide-stimulated macrophages (RAW 264.7)", "value-comparator": "=", "pIC50": 4.55}
{"compound": "COc1cc([C@@H]2Oc3c(O)cc([C@H]4Oc5c(Br)c(O)c(Br)c(O)c5C(=O)[C@@H]4O)cc3[C@H]2CO)ccc1O", "tgt": "lipopolysaccharide-stimulated macrophages (RAW 264.7)", "value-comparator": "<", "pIC50": 4.00}
{"compound": "COc1cc([C@@H]2Oc3cc([C@H]4Oc5c(Br)c(O)cc(O)c5C(=O)[C@@H]4O)ccc3O[C@H]2CO)ccc1O", "tgt": "lipopolysaccharide-stimulated macrophages (RAW 264.7)", "value-comparator": "=", "pIC50": 4.42}

* * *

# System: lipopolysaccharide-stimulated macrophages (RAW 264.7)
# assay-method-text: Inhibition of nitric oxide production (Griess reagent)
# Type: cell-based, murine
# condition-details: Mus musculus, RAW264.7; LPS 100 ng/mL, 24 h; highest tested concentration 100 µM; read-out: NO Production IC50

{"molecule": "COc1cc([C@@H]2Oc3cc([C@H]4Oc5cc(O)c(Cl)c(O)c5C(=O)[C@@H]4O)ccc3O[C@H]2CO)ccc1O", "IC50 [µM]": 52.4}
{"molecule": "COc1cc([C@H]2Oc3cc([C@H]4Oc5cc(O)cc(O)c5C(=O)[C@@H]4O)ccc3O[C@@H]2CO)ccc1O [3a, silybin A, reference compound]", "IC50 [µM]": 53.9}
{"molecule": "COc1cc([C@@H]2Oc3c(O)cc(-c4oc5cc(O)cc(O)c5c(=O)c4O)cc3[C@H]2CO)ccc1O [compound 6, 2,3-dehydrosilychristin A, reference compound]", "IC50 [µM]": 42.1}
{"molecule": "COc1cc([C@@H]2Oc3c(O)cc([C@H]4Oc5cc(O)cc(O)c5C(=O)[C@@H]4O)cc3[C@H]2CO)ccc1O [compound 5, silychristin A, reference compound]", "IC50 [µM]": 72.5}
{"molecule": "O=c1c(O)c(-c2ccc(O)c(O)c2)oc2cc(O)cc(O)c12 [compound 2, quercetin, reference compound]", "IC50 [µM]": 14.6}
{"molecule": "COc1cc([C@@H]2Oc3c(O)cc(-c4oc5c(Br)c(O)cc(O)c5c(=O)c4O)cc3[C@H]2CO)ccc1O [compound 18, 8-Bromo-2,3-dehydrosilychristin A]", "IC50 [µM]": 32.6}
